Reference source: ChEMBL document CHEMBL5723585

target: cAMP and cAMP-inhibited cGMP 3',5'-cyclic phosphodiesterase 10A (Homo sapiens, UniProt Q9Y233)
Sequence (Q9Y233 whole entry): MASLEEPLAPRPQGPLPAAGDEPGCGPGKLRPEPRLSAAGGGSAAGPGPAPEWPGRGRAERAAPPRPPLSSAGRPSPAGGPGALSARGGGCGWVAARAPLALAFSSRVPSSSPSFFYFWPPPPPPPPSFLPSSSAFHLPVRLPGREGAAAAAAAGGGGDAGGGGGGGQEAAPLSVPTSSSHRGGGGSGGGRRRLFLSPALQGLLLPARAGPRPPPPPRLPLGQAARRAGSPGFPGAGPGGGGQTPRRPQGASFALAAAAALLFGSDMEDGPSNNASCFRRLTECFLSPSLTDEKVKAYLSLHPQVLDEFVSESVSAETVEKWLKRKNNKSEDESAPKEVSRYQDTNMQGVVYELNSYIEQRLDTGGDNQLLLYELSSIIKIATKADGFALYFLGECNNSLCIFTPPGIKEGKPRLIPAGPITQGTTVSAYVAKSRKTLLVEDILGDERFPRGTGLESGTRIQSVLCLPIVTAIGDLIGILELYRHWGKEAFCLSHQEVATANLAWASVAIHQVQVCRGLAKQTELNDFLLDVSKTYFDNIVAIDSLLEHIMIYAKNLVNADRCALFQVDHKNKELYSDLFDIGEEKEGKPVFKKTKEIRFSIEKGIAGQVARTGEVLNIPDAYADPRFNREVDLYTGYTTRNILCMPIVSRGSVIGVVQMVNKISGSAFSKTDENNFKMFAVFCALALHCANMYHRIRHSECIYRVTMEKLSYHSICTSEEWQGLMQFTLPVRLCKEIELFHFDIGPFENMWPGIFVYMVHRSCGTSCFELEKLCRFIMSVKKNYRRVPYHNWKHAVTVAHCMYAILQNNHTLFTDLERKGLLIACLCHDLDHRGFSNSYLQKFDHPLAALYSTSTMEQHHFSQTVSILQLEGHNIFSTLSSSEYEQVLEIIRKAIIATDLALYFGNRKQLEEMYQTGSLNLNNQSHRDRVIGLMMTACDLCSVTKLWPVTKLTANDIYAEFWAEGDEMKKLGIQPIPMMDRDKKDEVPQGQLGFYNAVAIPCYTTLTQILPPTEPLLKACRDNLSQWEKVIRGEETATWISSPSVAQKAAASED
property name: pKi
Scale note: pKi = -log10(concentration in M).

Form field pKi, entry `Cc1cc(C(=O)N2CC[C@@H](C)[C@H](c3cc(C(F)F)nc4ncnn34)C2)cc(C)n1` : 7.52
